Data provenance: patent US11992497B2

- experiment-notes: Quantification of CBG and CBG glucuronide in rat plasma (LC-MS/MS)
- Assay type: in vivo, Sprague-Dawley rat
- assay-setup: both sexes, Sprague-Dawley, rat, plasma, oral, 10 mg/kg, CBG 10 mg/kg oral gavage once daily; 4 hr post Rx; read-out: CBG concentration in rat plasma (Day 21)

{"columns": ["compound-structure", "concentration at 4 h"],
 "data": [
  ["CCCCCc1cc(O)c(C/C=C(\\C)CCC=C(C)C)c(O)c1", "4.73 ng/mL"]
]}

* * *

- target-system: UGT1A3 (Homo sapiens)
- Sequence (P35503 29-534): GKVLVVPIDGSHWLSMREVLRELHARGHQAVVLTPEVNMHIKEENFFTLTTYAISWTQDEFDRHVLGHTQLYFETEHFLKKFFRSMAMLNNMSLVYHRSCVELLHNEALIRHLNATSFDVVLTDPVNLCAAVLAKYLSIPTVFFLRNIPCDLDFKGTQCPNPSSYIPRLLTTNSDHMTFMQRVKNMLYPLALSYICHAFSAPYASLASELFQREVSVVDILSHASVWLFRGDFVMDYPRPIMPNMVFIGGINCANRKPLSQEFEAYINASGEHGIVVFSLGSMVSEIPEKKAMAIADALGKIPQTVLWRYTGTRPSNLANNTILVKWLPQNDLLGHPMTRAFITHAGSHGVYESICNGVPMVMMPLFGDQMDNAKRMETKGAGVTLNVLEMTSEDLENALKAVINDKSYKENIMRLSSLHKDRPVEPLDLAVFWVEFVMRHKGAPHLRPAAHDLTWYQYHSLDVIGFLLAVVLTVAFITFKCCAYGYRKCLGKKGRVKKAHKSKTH
- experiment-notes: UGT reaction phenotyping, recombinant Supersomes
- assay-setup: recombinant enzyme, pH 7.4
Reported microsomal CLint at 1 µM is given for each of the following compounds.
assay-endpoint: microsomal CLint at 1 µM (µL/min/mg)

{"columns": ["compound", "target-system", "assay-endpoint", "reported-result"],
 "data": [
  ["CCCCCc1cc(O)c(C/C=C(\\C)CCC=C(C)C)c(O)c1", "UGT1A3 (Homo sapiens)", "microsomal CLint at 1 µM", 31.4],
  ["O=c1cc(C(F)(F)F)c2ccc(O)cc2o1 [7-OH4trifluoromethylcoumarin, 7-hydroxy-4-trifluoromethylcoumarin]", "UGT1A3 (Homo sapiens)", "microsomal CLint at 1 µM", 26.8],
  ["CCCCCc1cc(O)c(C/C=C(\\C)CCC=C(C)C)c(OC)c1", "UGT1A3 (Homo sapiens)", "microsomal CLint at 1 µM", 12.8]
]}
